experimental_target: HLA DRB5 *0101 (Homo sapiens, UniProt P01903+Q30154)
experimental_details: IC50nM to purified HLA | DRB5 *0101
pIC50: −log10 of the molar value. Where no end group is shown, it is not given here.
Label Satisfied when pIC50 >= 8; otherwise Not satisfied.

Is it the case that AAANFVAANTLKAEA [SEQ ID NO: 62] has pIC50 reaching or exceeding 8?
Not satisfied

Also AAANFVAAWTLKADA [SEQ ID NO: 55] , if possible.
Not satisfied

Also AAAIFVAAFTLHAAA [SEQ ID NO: 71] , if possible.
Not satisfied

Also AAANFVAANTLHAAA [SEQ ID NO: 54] , if possible.
Not satisfied

Also AAAQFVAAWTLKAAA [SEQ ID NO: 63] , if possible.
Satisfied

Please look at the following sequence next.
Is it the case that AAAQFVAAYTLHAAA [SEQ ID NO: 65] has pIC50 reaching or exceeding 8?
Not satisfied
